Cited source for all entries: patent US12421269B2

For each record, write down the corresponding pIC50.
TARGET: UniProtKB P31639
Sequence (P31639 whole entry): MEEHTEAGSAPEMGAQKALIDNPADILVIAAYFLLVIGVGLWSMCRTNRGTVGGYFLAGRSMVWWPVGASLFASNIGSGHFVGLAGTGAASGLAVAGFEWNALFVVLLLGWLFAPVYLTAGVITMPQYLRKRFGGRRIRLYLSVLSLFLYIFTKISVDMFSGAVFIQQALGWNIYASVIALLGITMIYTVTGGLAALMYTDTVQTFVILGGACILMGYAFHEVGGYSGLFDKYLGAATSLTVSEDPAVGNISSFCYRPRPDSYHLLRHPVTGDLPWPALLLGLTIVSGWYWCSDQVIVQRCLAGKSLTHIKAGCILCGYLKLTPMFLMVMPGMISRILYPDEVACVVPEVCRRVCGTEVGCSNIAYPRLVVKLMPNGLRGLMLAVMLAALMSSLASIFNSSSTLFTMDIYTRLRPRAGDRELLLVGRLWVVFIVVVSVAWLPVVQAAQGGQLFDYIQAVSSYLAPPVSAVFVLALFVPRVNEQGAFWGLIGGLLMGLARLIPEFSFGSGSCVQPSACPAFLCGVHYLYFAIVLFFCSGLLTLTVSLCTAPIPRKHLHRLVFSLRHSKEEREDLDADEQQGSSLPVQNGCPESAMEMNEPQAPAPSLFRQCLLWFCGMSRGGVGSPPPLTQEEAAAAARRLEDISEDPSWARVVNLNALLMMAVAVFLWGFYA
ASSAY_NOTES: SGLT2 glucose transport assay ([14C]-labeled glucose uptake)
APPLIED_CONDITIONS: cells stably expressing Human-SGLT2, 37° C., 2 hours
One number for each entry, as −log10 of the molar value.

Here are 3 molecules. What values of pIC50 were reported for them?
1. CS[C@H]1O[C@@H](c2cccc(Cc3ccc(OC4CCN([C@H]5CO[C@H](c6cc(F)ccc6F)[C@@H](N)C5)C4)cc3)c2)[C@H](O)[C@@H](O)[C@@H]1O (stereo partly drawn) [WX005]
2. CS[C@H]1O[C@@H](c2ccc(Cl)c(Cc3ccc(O[C@@H]4CCN([C@H]5CO[C@H](c6cc(F)ccc6F)[C@@H](N)C5)C4)cc3)c2C)[C@H](O)[C@@H](O)[C@@H]1O [WX003]
3. CS[C@H]1O[C@@H](c2cc(C)c(Cl)c(Cc3ccc(OC4CCN([C@H]5CO[C@H](c6cc(F)ccc6F)[C@@H](N)C5)C4)cc3)c2)[C@H](O)[C@@H](O)[C@@H]1O (stereo partly drawn) [WX004]

Output line:
8.30
6.48
8.22
